Give measured pKd for each item. Keep answers brief.
- test_target: T1, full-length human lysosomal trafficking regulator-interacting protein 5 (FL-LIP5) (human, UniProt Q9NP79 1-307)
- T1 construct: spacer between the last LIP5 residue and the TEV protease site that precedes the His tag; same tag, TEV site and linker as ND-LIP5; No TEV cleavage is described; also called full-length LIP5; wild-type LIP5; source: E. coli BL21*(DE3), purified (HisTrap, SEC)
- T1 sequence: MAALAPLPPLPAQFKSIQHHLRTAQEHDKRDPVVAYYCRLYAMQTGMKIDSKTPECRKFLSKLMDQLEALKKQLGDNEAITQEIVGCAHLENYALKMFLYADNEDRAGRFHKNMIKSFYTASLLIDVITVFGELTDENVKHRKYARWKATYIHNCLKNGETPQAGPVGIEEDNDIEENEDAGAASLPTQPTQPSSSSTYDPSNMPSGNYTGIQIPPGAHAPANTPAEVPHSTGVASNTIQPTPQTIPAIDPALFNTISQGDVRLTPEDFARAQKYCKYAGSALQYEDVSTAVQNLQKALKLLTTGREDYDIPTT
- assay_explanation: other fluorescence titration; Alexa 488-labeled, dephosphorylated AQP2 (around 1 uM) in the cuvette, titrated with unlabeled LIP5; total fluorescence; 20 mM Tris-HCl pH 8, 300 mM NaCl, 0.2% OGNG; triplicate titrations
- experimental_setup: both partners purified
Just so you know, pKd here is -log10 of the concentration in molar units; reply with that number alone.

Give its pKd value. Item: human AQP2 L230A (natural protein, UniProt P41181 1-271, looked up, cysteine residues labeled with C5 maleimide Alexa 488; dephosphorylated with alkaline phosphatase before labeling, Mutant of m1; source: Pichia pastoris, purified (HisTrap, SEC) in OGNG; not shown: His-tag, N-terminal, kept) MWELRSIAFSRAVFAEFLATLLFVFFGLGSALNWPQALPSVLQIAMAFGLGIGTLVQALGHISGAHINPAVTVACLVGCHVSVLRAAFYVAAQLLGAVAGAALLHEITPADIRGDLAVNALSNSTTAGQAVTVELFLTLQLVLCIFASTDERRGENPGTPALSIGFSVALGHLLGIHYTGCSMNPARSLAPAVVTGKFDDHWVFWIGPLVGAILGSLLYNYVLFPPAKSASERLAVLKGLEPDTDWEEREVRRRQSVELHSPQSLPRGTKA
6.81

Now try human AQP2 R233A (natural protein, UniProt P41181 1-271, looked up, cysteine residues labeled with C5 maleimide Alexa 488; dephosphorylated with alkaline phosphatase before labeling, Mutant of m1; source: Pichia pastoris, purified (HisTrap, SEC) in OGNG; not shown: His-tag, N-terminal, kept) MWELRSIAFSRAVFAEFLATLLFVFFGLGSALNWPQALPSVLQIAMAFGLGIGTLVQALGHISGAHINPAVTVACLVGCHVSVLRAAFYVAAQLLGAVAGAALLHEITPADIRGDLAVNALSNSTTAGQAVTVELFLTLQLVLCIFASTDERRGENPGTPALSIGFSVALGHLLGIHYTGCSMNPARSLAPAVVTGKFDDHWVFWIGPLVGAILGSLLYNYVLFPPAKSLSEALAVLKGLEPDTDWEEREVRRRQSVELHSPQSLPRGTKA .
6.31

And human aquaporin 2 (AQP2), wild-type (natural protein, UniProt P41181 1-271, looked up, cysteine residues labeled with C5 maleimide Alexa 488; dephosphorylated with alkaline phosphatase before labeling, concentrations and molar ratios seem to count monomers; His-tag is called uncleavable; also called WT; labeled AQP2; source: Pichia pastoris, purified (HisTrap, SEC) in OGNG; not shown: His-tag, N-terminal, kept) MWELRSIAFSRAVFAEFLATLLFVFFGLGSALNWPQALPSVLQIAMAFGLGIGTLVQALGHISGAHINPAVTVACLVGCHVSVLRAAFYVAAQLLGAVAGAALLHEITPADIRGDLAVNALSNSTTAGQAVTVELFLTLQLVLCIFASTDERRGENPGTPALSIGFSVALGHLLGIHYTGCSMNPARSLAPAVVTGKFDDHWVFWIGPLVGAILGSLLYNYVLFPPAKSLSERLAVLKGLEPDTDWEEREVRRRQSVELHSPQSLPRGTKA ?
6.62

Next binder up: human AQP2 K238A (natural protein, UniProt P41181 1-271, looked up, cysteine residues labeled with C5 maleimide Alexa 488; dephosphorylated with alkaline phosphatase before labeling, Mutant of m1; source: Pichia pastoris, purified (HisTrap, SEC) in OGNG; not shown: His-tag, N-terminal, kept) MWELRSIAFSRAVFAEFLATLLFVFFGLGSALNWPQALPSVLQIAMAFGLGIGTLVQALGHISGAHINPAVTVACLVGCHVSVLRAAFYVAAQLLGAVAGAALLHEITPADIRGDLAVNALSNSTTAGQAVTVELFLTLQLVLCIFASTDERRGENPGTPALSIGFSVALGHLLGIHYTGCSMNPARSLAPAVVTGKFDDHWVFWIGPLVGAILGSLLYNYVLFPPAKSLSERLAVLAGLEPDTDWEEREVRRRQSVELHSPQSLPRGTKA
6.26

Queued: human AQP2 L237A (natural protein, UniProt P41181 1-271, looked up, cysteine residues labeled with C5 maleimide Alexa 488; dephosphorylated with alkaline phosphatase before labeling, Mutant of m1; source: Pichia pastoris, purified (HisTrap, SEC) in OGNG; not shown: His-tag, N-terminal, kept) MWELRSIAFSRAVFAEFLATLLFVFFGLGSALNWPQALPSVLQIAMAFGLGIGTLVQALGHISGAHINPAVTVACLVGCHVSVLRAAFYVAAQLLGAVAGAALLHEITPADIRGDLAVNALSNSTTAGQAVTVELFLTLQLVLCIFASTDERRGENPGTPALSIGFSVALGHLLGIHYTGCSMNPARSLAPAVVTGKFDDHWVFWIGPLVGAILGSLLYNYVLFPPAKSLSERLAVAKGLEPDTDWEEREVRRRQSVELHSPQSLPRGTKA
6.27

Entry to check: human AQP2 E241A (natural protein, UniProt P41181 1-271, looked up, cysteine residues labeled with C5 maleimide Alexa 488; dephosphorylated with alkaline phosphatase before labeling, Mutant of m1; source: Pichia pastoris, purified (HisTrap, SEC) in OGNG; not shown: His-tag, N-terminal, kept) MWELRSIAFSRAVFAEFLATLLFVFFGLGSALNWPQALPSVLQIAMAFGLGIGTLVQALGHISGAHINPAVTVACLVGCHVSVLRAAFYVAAQLLGAVAGAALLHEITPADIRGDLAVNALSNSTTAGQAVTVELFLTLQLVLCIFASTDERRGENPGTPALSIGFSVALGHLLGIHYTGCSMNPARSLAPAVVTGKFDDHWVFWIGPLVGAILGSLLYNYVLFPPAKSLSERLAVLKGLAPDTDWEEREVRRRQSVELHSPQSLPRGTKA
6.16

Field entry: human AQP2 L234A (natural protein, UniProt P41181 1-271, looked up, cysteine residues labeled with C5 maleimide Alexa 488; dephosphorylated with alkaline phosphatase before labeling, Mutant of m1; source: Pichia pastoris, purified (HisTrap, SEC) in OGNG; not shown: His-tag, N-terminal, kept) MWELRSIAFSRAVFAEFLATLLFVFFGLGSALNWPQALPSVLQIAMAFGLGIGTLVQALGHISGAHINPAVTVACLVGCHVSVLRAAFYVAAQLLGAVAGAALLHEITPADIRGDLAVNALSNSTTAGQAVTVELFLTLQLVLCIFASTDERRGENPGTPALSIGFSVALGHLLGIHYTGCSMNPARSLAPAVVTGKFDDHWVFWIGPLVGAILGSLLYNYVLFPPAKSLSERAAVLKGLEPDTDWEEREVRRRQSVELHSPQSLPRGTKA
6.90
